Would you mind telling me the reported pKi of each entry?
Target: D1 receptor (Rattus norvegicus, UniProt P18901)
Sequence (P18901 whole entry): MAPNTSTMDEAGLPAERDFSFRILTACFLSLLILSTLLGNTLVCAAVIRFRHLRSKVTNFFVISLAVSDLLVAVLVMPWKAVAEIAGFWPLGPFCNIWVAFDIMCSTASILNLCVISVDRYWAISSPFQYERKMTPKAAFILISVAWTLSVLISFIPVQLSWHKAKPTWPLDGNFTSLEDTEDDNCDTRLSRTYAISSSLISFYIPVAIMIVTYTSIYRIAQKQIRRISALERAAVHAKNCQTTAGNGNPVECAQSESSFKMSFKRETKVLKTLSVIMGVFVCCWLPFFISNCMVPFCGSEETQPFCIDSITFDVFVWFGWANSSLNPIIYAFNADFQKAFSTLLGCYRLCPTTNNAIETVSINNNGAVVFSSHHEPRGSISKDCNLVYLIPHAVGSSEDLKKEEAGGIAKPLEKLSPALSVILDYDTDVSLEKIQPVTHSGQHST
Experiment: Receptor binding, D1 receptor, [3H]-SCH23390, rat striatal membranes (part A)
Parameters: membranes from striatal tissues were prepared; from tissue; host or cells: rat striatum (membranes); species or system rat (Sprague-Dawley)
Conditions: [3H]-SCH23390; rat striatal membranes; Table 1; read-out: Affinity Ki for D1 receptor
Hey, just a heads up that pKi is the negative log base 10 of the concentration in molar.

Record CCCN(CCCCCCNCCOc1ccccc1OC)[C@H]1CCc2c(ccc(O)c2O)C1 [Compound 1] / D1 receptor (Rattus norvegicus, UniProt P18901), pKi recorded as 6.71

Record Oc1ccc(CCNCCCCCCNCCc2ccccc2)cc1O [Dopexamine, dopexamine, reference compound] / D1 receptor (Rattus norvegicus, UniProt P18901), pKi recorded as 5.65

Data origin: patent US5407956A
